molecular target: UniProtKB P35916; experiment: Kinase inhibition, Mobility Shift Assay (VEGFR3); type: biochemical
measured.metric: IC50

compound="CNC(=O)c1ccccc1Sc1ccc2c(/C=C/c3cncc(OCCN4CCCC4)c3)n[nH]c2c1 [Compound I-22]" data_value="10 to 100 nM"
compound="CN(C)Cc1ccc(/C=C/c2n[nH]c3cc(Sc4ccccc4C(=O)NC4CC4)ccc23)nc1 [Compound I-40]" data_value="1 to 10 nM"
compound="CNC(=O)c1ccccc1Sc1ccc2c(/C=C/c3ccnc(OCCN4CCCC4)c3)n[nH]c2c1 [Compound I-18]" data_value="1 to 10 nM"
compound="CNC(=O)c1ccccc1Sc1ccc2c(/C=C/c3ccc(OCCN4CCOCC4)cn3)n[nH]c2c1 [Compound I-3]" data_value="≤ 1 nM"
compound="CNC(=O)c1ccccc1Sc1ccc2c(C#Cc3ccc(OCCN4CCCC4)cn3)n[nH]c2c1 [Compound I-16]" data_value="1 to 10 nM"
compound="CNC(=O)c1ccccc1Sc1ccc2c(/C=C/c3ccn(CCCN4CCCC4)n3)n[nH]c2c1 [Compound I-11]" data_value="1 to 10 nM"
compound="CNC(=O)c1ccccc1Sc1ccc2c(/C=C/c3cnn(CCCN4CCCC4)c3)n[nH]c2c1 [Compound I-32]" data_value="1 to 10 nM"
compound="O=C(NC1CC1)c1cc(F)ccc1Sc1ccc2c(/C=C/c3cc(CCCN4CCCC4)ccn3)n[nH]c2c1 [Compound I-119]" data_value="10 to 100 nM"

###

target: FLT4 (VEGFR3) (Homo sapiens (Human), UniProt P35916); assay: Kinase inhibition, Mobility Shift Assay (VEGFR3); format: biochemical
Sequence (P35916 25-1363): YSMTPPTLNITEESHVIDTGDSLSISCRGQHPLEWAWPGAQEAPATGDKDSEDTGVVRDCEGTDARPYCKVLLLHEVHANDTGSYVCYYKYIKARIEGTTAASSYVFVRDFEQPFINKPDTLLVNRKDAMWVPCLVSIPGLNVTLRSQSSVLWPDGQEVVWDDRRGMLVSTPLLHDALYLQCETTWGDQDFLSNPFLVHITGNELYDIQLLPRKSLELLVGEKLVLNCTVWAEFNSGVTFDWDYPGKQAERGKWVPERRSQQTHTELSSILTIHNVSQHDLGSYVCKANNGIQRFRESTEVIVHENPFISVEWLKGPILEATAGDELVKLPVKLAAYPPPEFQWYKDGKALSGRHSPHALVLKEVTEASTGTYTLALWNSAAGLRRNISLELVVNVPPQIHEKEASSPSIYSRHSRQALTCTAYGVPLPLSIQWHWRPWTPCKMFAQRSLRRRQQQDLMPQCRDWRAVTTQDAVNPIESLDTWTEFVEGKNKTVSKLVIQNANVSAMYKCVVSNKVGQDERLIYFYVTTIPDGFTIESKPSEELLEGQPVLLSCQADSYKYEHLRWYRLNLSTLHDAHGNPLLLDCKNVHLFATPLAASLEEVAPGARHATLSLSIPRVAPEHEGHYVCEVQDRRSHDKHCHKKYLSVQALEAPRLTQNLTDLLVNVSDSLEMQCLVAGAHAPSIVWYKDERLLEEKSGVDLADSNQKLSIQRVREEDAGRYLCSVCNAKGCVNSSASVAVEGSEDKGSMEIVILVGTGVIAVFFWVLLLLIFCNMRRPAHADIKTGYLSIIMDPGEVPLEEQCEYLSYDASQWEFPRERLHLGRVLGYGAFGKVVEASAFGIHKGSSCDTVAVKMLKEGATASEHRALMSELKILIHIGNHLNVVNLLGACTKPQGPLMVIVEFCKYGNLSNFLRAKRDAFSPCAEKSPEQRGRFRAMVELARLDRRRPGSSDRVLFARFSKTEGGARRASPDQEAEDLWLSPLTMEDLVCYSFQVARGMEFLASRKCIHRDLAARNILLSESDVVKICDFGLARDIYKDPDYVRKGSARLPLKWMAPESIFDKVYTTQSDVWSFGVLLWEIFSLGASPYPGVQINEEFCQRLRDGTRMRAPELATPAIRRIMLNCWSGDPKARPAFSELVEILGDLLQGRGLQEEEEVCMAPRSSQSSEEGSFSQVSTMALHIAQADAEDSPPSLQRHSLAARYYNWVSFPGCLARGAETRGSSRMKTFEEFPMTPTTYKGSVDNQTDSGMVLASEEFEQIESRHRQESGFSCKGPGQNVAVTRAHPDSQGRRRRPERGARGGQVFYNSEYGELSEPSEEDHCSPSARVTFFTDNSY
Below, each entry is listed alongside its reported IC50.
measured.metric: IC50

molecule=CCNC(=O)c1cccc(F)c1Sc1ccc2c(/C=C/c3cc(CCCN4CCCC4)ccn3)n[nH]c2c1 measurement_target="FLT4 (VEGFR3) (Homo sapiens (Human), UniProt P35916)" data_value="10 to 100 nM"
molecule=CNC(=O)c1ccccc1Sc1ccc2c(/C=C/c3ccc(OCCN4CCCC4)nc3)n[nH]c2c1 measurement_target="FLT4 (VEGFR3) (Homo sapiens (Human), UniProt P35916)" data_value="1 to 10 nM"
molecule=CNC(=O)c1ccccc1Sc1ccc2c(/C=C/c3cccc(OCCN4CCCC4)c3)n[nH]c2c1 measurement_target="FLT4 (VEGFR3) (Homo sapiens (Human), UniProt P35916)" data_value="1 to 10 nM"
molecule=CNC(=O)c1ccccc1Sc1ccc2c(/C=C/c3ccn(CCN4CCCC4)n3)n[nH]c2c1 measurement_target="FLT4 (VEGFR3) (Homo sapiens (Human), UniProt P35916)" data_value="≤ 1 nM"
molecule=CNC(=O)c1ccccc1Sc1ccc2c(/C=C/c3ccccn3)ncn2c1 measurement_target="FLT4 (VEGFR3) (Homo sapiens (Human), UniProt P35916)" data_value="> 100 nM"
molecule=CNC(=O)c1ccc(F)cc1Sc1ccc2c(/C=C/c3ccc(OCCN4CCCC4)cn3)n[nH]c2c1 measurement_target="FLT4 (VEGFR3) (Homo sapiens (Human), UniProt P35916)" data_value="1 to 10 nM"
molecule=CN1CCN(c2ccc(/C=C/c3n[nH]c4cc(Sc5ccccc5C(=O)NC5CC5)ccc34)nc2)CC1 measurement_target="FLT4 (VEGFR3) (Homo sapiens (Human), UniProt P35916)" data_value="≤ 1 nM"
molecule=CNC(=O)c1ccccc1Sc1ccn2c(/C=C/c3ccccn3)ncc2c1 measurement_target="FLT4 (VEGFR3) (Homo sapiens (Human), UniProt P35916)" data_value="> 100 nM"

###

Below, each entry is listed alongside its reported IC50.
Biological target: KDR (VEGFR2) (Homo sapiens (Human))
Sequence (P35968 790-1356): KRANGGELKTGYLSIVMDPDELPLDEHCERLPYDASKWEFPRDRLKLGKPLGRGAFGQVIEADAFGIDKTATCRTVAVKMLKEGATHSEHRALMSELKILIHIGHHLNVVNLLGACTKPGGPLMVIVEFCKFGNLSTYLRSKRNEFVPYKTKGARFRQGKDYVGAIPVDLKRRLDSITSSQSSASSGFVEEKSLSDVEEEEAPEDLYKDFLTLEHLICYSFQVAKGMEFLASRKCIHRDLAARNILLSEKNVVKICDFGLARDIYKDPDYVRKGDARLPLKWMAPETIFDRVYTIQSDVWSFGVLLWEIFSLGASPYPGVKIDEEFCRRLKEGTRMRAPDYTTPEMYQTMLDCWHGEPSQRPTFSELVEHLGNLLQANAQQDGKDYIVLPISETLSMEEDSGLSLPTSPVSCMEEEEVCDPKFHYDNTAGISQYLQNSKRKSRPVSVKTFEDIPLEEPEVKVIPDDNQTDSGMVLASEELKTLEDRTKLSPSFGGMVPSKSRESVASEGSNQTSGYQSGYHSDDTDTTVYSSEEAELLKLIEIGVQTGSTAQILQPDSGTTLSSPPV
Assay: Kinase inhibition, Mobility Shift Assay (VEGFR2)
Format: biochemical
Method: This assay directly monitored the ability of compounds to inhibit kinase phosphorylation by measuring non-phosphorylated and phosphorylated substrates in kinase reactions by using Mobility Shift Assays/IMAP™ analysis. Add the kinase and DTT to 1× kinase buffer to form a 2.5× kinase solution; transfer 10 μL of 2.5× kinase solution to a 384-well reaction plate and add 1× kinase buffer to negative control wells. […] Read the conversion ratio data on CaliperEZ Reader II. […]
measured.metric: IC50

molecule=O=C(NC1CC1)c1cc(F)ccc1Sc1ccc2c(/C=C/c3cccc(CCN4CCCC4)n3)n[nH]c2c1 data_value="1 to 10 nM"
molecule=CNC(=O)c1ccccc1Sc1ccc2c(/C=C/c3ccc(OCCN4CCN(C)CC4)cn3)n[nH]c2c1 data_value="≤ 1 nM"
molecule=O=C(NC1CC1)c1cc(F)ccc1Sc1ccc2c(/C=C/c3cccc(CCCN4CCCC4)n3)n[nH]c2c1 data_value="1 to 10 nM"
molecule=O=C(NC1CC1)c1ccccc1Sc1ccc2c(C#Cc3ccc(OCCN4CCCC4)cn3)n[nH]c2c1 data_value="10 to 100 nM"

###

Below, each entry is listed alongside its reported IC50.
Target: UniProt:P35968
Assay: Kinase inhibition, Mobility Shift Assay (VEGFR2)
Type: biochemical
Experimental: This assay directly monitored the ability of compounds to inhibit kinase phosphorylation by measuring non-phosphorylated and phosphorylated substrates in kinase reactions by using Mobility Shift Assays/IMAP™ analysis. Add the kinase and DTT to 1× kinase buffer to form a 2.5× kinase solution; transfer 10 μL of 2.5× kinase solution to a 384-well reaction plate and add 1× kinase buffer to negative control wells. […] Read the conversion ratio data on CaliperEZ Reader II. […]
measured.metric: IC50

molecule=CN1CCN(c2ccc(/C=C/c3n[nH]c4cc(Sc5ccccc5C(=O)NC5CC5)ccc34)nc2)CC1 measured_metric=IC50 data_value="≤ 1 nM"
molecule=CCN(CC)Cc1ccc(/C=C/c2n[nH]c3cc(Sc4ccc(F)cc4C(=O)NC)ccc23)nc1 measured_metric=IC50 data_value="1 to 10 nM"
molecule=CCNC(=O)c1ccc(F)cc1Sc1ccc2c(/C=C/c3cnn(CCCN4CCCC4)c3)n[nH]c2c1 measured_metric=IC50 data_value="≤ 1 nM"
molecule=O=C(NC1CC1)c1ccccc1Sc1ccc2c(/C=C/c3ccn(CCN4CCCC4)n3)n[nH]c2c1 measured_metric=IC50 data_value="1 to 10 nM"
molecule=CCN(CC)CCc1ccc(/C=C/c2n[nH]c3cc(Sc4ccc(F)cc4C(=O)NC4CC4)ccc23)nc1 measured_metric=IC50 data_value="≤ 1 nM"
molecule=CNC(=O)c1ccccc1Sc1ccc2c(/C=C/c3ccc(O)cn3)n[nH]c2c1 measured_metric=IC50 data_value="1 to 10 nM"
molecule=CCNC(=O)c1ccc(Sc2ccc3c(/C=C/c4ccc(CN(CC)CC)cn4)n[nH]c3c2)cc1F measured_metric=IC50 data_value="> 100 nM"
molecule=CCN(CC)Cc1ccc(/C=C/c2n[nH]c3cc(Sc4ccccc4C(=O)NCC(F)(F)F)ccc23)nc1 measured_metric=IC50 data_value="1 to 10 nM"
molecule=O=C(NC1CC1)c1ccccc1Oc1ccc2c(/C=C/c3ccc(CN4CCCC4)cn3)n[nH]c2c1 measured_metric=IC50 data_value="10 to 100 nM"
molecule=CNC(=O)c1ccccc1Sc1ccc2c(/C=C/c3cccc(OCCN4CCCC4)c3)n[nH]c2c1 measured_metric=IC50 data_value="1 to 10 nM"
molecule=CCNC(=O)c1ccccc1Sc1ccc2c(/C=C/c3ccc(CN(CC)CC)cn3)n[nH]c2c1 measured_metric=IC50 data_value="≤ 1 nM"
molecule=CCN(CC)Cc1ccc(/C=C/c2n[nH]c3cc(Sc4ccccc4C(=O)NCC(F)F)ccc23)nc1 measured_metric=IC50 data_value="1 to 10 nM"
molecule=CCNC(=O)c1ccccc1Sc1ccc2c(/C=C/c3ccc(CN4CCCC4)cn3)n[nH]c2c1 measured_metric=IC50 data_value="1 to 10 nM"
molecule=CNC(=O)c1ccccc1Sc1ccc2c(/C=C/c3cncc(OCCN4CCCC4)c3)n[nH]c2c1 measured_metric=IC50 data_value="10 to 100 nM"
molecule=CN1CCC(CCOc2ccc(/C=C/c3n[nH]c4cc(Sc5ccccc5C(=O)NC5CC5)ccc34)nc2)CC1 measured_metric=IC50 data_value="≤ 1 nM"
molecule=CNC(=O)c1ccccc1Sc1ccc2c(/C=C/c3ccc(CCN4CCCC4)cn3)n[nH]c2c1 measured_metric=IC50 data_value="1 to 10 nM"
molecule=CNC(=O)c1ccccc1Sc1ccc2c(C#Cc3cc(OCCN4CCCC4)ccn3)n[nH]c2c1 measured_metric=IC50 data_value="10 to 100 nM"
molecule=CNC(=O)c1cccc(F)c1Sc1ccc2c(/C=C/c3cnn(CCCN4CCCC4)c3)n[nH]c2c1 measured_metric=IC50 data_value="1 to 10 nM"
molecule=CCN(CC)Cc1ccc(/C=C/c2n[nH]c3cc(Sc4ccccc4C(=O)NCCF)ccc23)nc1 measured_metric=IC50 data_value="1 to 10 nM"
molecule=CNC(=O)c1cc(F)ccc1Sc1ccc2c(/C=C/c3ccc(CN4CCCC4)cn3)n[nH]c2c1 measured_metric=IC50 data_value="1 to 10 nM"
molecule="CNC(=O)c1ccccc1Sc1ccc2c(/C=C/c3ccc(OCC4CCN(C)C4)cn3)n[nH]c2c1 (stereo not drawn)" measured_metric=IC50 data_value="≤ 1 nM"
molecule=O=C(NC1CC1)c1cc(F)ccc1Sc1ccc2c(/C=C/c3cc(OCCN4CCCC4)ccn3)n[nH]c2c1 measured_metric=IC50 data_value="1 to 10 nM"
molecule=O=C(NC1CC1)c1ccccc1Sc1ccc2c(/C=C/c3cc(CN4CCCC4)ccn3)n[nH]c2c1 measured_metric=IC50 data_value="1 to 10 nM"
molecule=O=C(NC1CC1)c1cc(F)ccc1Sc1ccc2c(/C=C/c3cc(CCCN4CCCC4)ccn3)n[nH]c2c1 measured_metric=IC50 data_value="≤ 1 nM"
molecule=O=C(NC1CC1)c1ccccc1Sc1ccc2c(/C=C/c3ccc(CN4CCCC4)cn3)n[nH]c2c1 measured_metric=IC50 data_value="≤ 1 nM"
molecule=O=C(NC1CC1)c1ccccc1Sc1ccc2c(/C=C/c3cnn(CCCN4CCCC4)c3)n[nH]c2c1 measured_metric=IC50 data_value="≤ 1 nM"
molecule=CNC(=O)c1ccccc1Sc1ccn2c(/C=C/c3ccccn3)ncc2c1 measured_metric=IC50 data_value="> 100 nM"
molecule=CNC(=O)c1ccccc1Sc1ccc2c(NC(=O)NCCN3CCN(C)CC3)n[nH]c2c1 measured_metric=IC50 data_value="> 100 nM"
molecule=CNC(=O)c1c(F)cccc1Sc1ccc2c(/C=C/c3ccc(OCCN4CCCC4)cn3)n[nH]c2c1 measured_metric=IC50 data_value="1 to 10 nM"
molecule=CNC(=O)c1ccccc1Sc1ccc2c(C#Cc3ccc(OCCN4CCCC4)cn3)n[nH]c2c1 measured_metric=IC50 data_value="1 to 10 nM"
